- Assayed target: T1, human TIGIT (human, UniProt Q495A1 22-244)
- T1 construct: Cell-surface form; also called huTIGIT
- T1 sequence: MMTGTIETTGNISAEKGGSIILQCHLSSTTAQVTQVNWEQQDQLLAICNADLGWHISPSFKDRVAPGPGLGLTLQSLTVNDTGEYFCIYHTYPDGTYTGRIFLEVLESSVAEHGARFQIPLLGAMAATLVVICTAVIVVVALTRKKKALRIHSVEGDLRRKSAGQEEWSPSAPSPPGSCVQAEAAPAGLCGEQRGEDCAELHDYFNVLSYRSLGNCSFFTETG
- Method: flow cytometry on CHO-S cells expressing human TIGIT, competitor huCD155-Fc-Alexa 647, at 1.7 µg/mL
// values below are reported % inhibition
Provide only the numeric value, understood in %.

43B7 (antibody, V domains shown, Fully human XenoMouse antibody, tested as hybridoma supernatant or purified mAb) VH: QVQLQESGPGLVKPSQTLSLTCTVSGGSISSGGYYWSWIRQHPGKGLEWIGYIYYRGGTYYNPSLRSRVTMSVDTSKNQFSLMLSSVTAADTAVYYCARTIFGVIILDNWGQGTPVTVSS VL: DIQMTQSPSSLSASVGDRVTITCRSSQSISSYLNWYQQKPGRAPKLLIHAASSLQSGVPSRFSGSGSGTDFTLTISSLQPEDFASYCCQQSYTTPPTFGGGTKVEIKR
100

Now look at this entry.
Inquiry: Indicate the recorded % inhibition value for this binder: 58A7 (antibody, V domains shown, Tested as hybridoma supernatant or purified mAb; also called 48B7) VH: QVQLQESGPGLVKPSQTLSLTCTVSGGSISSGGYYWNWIRQHPGKGLEWIGYIYYSGSTFYNPSLKSRVIISVDTSKNQFSLKLSSVTAADTAVYYCARAPRYNWNYGWFDPWGQGTLVTVSS VL: EIVLTQSPGTLSLSPGERATLSCRASQNVSSTYLAWYQQKPGQAPRLLFYGASSRATGIPDRFSRSGSGTDFTLTISRLEPEDFAVYYCQQYDVSPWTFGQGTKVEIK
Reply text: 99
